target: Human α2δ-1 subunit of Cav2.2 calcium channel (Homo sapiens, UniProt P54289); experiment: Human α2δ-1 subunit of Cav2.2 calcium channel assay ([3H]-gabapentin binding); conditions: binding to the α2δ-1 subunit of voltage-gated calcium channels expressed as Ki; + also covers inhibition between 1% and 50%
Sequence (P54289 25-1103): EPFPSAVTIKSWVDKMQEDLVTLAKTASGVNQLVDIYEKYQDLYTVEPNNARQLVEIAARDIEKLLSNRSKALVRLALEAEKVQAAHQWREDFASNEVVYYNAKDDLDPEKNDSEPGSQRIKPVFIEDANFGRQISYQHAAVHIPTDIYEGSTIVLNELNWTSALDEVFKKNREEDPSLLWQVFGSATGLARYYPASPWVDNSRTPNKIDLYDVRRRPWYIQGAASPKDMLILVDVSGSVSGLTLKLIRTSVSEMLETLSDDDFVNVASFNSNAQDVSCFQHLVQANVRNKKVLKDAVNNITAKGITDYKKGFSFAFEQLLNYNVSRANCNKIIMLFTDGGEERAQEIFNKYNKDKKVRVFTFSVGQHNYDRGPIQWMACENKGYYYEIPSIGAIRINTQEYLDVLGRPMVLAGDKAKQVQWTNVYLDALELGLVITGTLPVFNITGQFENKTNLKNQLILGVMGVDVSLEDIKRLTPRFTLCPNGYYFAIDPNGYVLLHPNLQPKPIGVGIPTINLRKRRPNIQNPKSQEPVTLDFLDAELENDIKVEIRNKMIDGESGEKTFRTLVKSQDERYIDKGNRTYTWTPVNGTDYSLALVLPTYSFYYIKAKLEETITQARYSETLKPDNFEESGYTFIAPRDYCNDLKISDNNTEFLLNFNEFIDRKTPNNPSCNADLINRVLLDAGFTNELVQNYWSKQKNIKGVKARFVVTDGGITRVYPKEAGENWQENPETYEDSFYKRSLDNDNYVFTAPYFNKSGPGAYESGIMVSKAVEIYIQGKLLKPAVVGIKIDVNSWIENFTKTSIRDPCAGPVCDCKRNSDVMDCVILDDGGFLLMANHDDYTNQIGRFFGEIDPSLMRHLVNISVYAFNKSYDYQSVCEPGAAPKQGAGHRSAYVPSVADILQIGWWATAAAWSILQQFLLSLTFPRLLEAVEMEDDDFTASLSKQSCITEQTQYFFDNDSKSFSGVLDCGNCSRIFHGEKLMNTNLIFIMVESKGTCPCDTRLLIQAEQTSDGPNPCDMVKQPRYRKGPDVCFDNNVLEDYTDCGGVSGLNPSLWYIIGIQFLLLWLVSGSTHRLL
Measured Ki, listed per entry for reference.

Molecule: Cc1nn2c(C3CCCN(Cc4ccccc4)C3)ccnc2c1CN1CCNCC1 (stereo not shown) [Example 100]
Ki: 0.5 to 5 µM
//
Molecule: Clc1nn2c([C@H]3CCCN(Cc4ccccc4)C3)ccnc2c1CNCC1CCOCC1 [Example 214]
Ki: 0.5 to 5 µM
//
Molecule: Cc1nn2c(C3CCCN(Cc4ccc(Cl)cc4)C3)ccnc2c1CN(C)Cc1ccccc1 (stereo not shown) [Example 145]
Ki: 0.5 to 5 µM

Now take the following molecule into account.
Would you mind telling me what Ki value was observed for c1ccc(CN2CCCC(c3ccnc4c(-c5ccccc5)cnn34)C2)cc1 (stereo not shown) [Example 35] ? > 5 µM

* * *

Measured Ki, listed per entry for reference.
target: Human α2δ-1 subunit of Cav2.2 calcium channel (Homo sapiens); experiment: Human α2δ-1 subunit of Cav2.2 calcium channel assay ([3H]-gabapentin binding); conditions: binding to the α2δ-1 subunit of voltage-gated calcium channels expressed as Ki; + also covers inhibition between 1% and 50%

Would you mind telling me what Ki value was observed for Cc1cc(-c2c(C)nn3c(C4CCCN(Cc5ccccc5)C4)ccnc23)ccn1 (stereo not shown) [Example 51] ? 0.5 to 5 µM

Would you mind telling me what Ki value was observed for Cc1nn2c([C@H]3CCCN(Cc4ccc(F)cc4)C3)ccnc2c1CNCC1CCOCC1 [Example 206] ? < 0.5 µM

Would you mind telling me what Ki value was observed for Cc1nn2c(C3CCCN(Cc4ccccc4)C3)ccnc2c1-c1ccnc(F)c1 (stereo not shown) [Example 50] ? 0.5 to 5 µM

Would you mind telling me what Ki value was observed for Cc1nn2c(CC3CCCN(Cc4ccc(Cl)cc4)C3)ccnc2c1-c1ccncc1 (stereo not shown) [Example 249] ? > 5 µM

Would you mind telling me what Ki value was observed for Cc1nn2c(C3CCCN(Cc4ccc(Cl)cc4)C3)ccnc2c1CNCCOC(C)C (stereo not shown) [Example 162] ? 0.5 to 5 µM

Would you mind telling me what Ki value was observed for CCc1cc2nccc(C3CCCN(Cc4ccccc4)C3)n2n1 (stereo not shown) [Example 4] ? 0.5 to 5 µM

Would you mind telling me what Ki value was observed for Cn1cc(-c2cc3nccc(C4CCCN(Cc5ccccc5)C4)n3n2)cn1 (stereo not shown) [Example 25] ? > 5 µM

Would you mind telling me what Ki value was observed for Cc1nn2c(C3CCCN(Cc4ccc(Cl)cc4)C3)ccnc2c1CNCCC(C)C (stereo not shown) [Example 161] ? 0.5 to 5 µM

Would you mind telling me what Ki value was observed for Cc1nn2c(C3CCCN(Cc4ccc(Cl)c(Cl)c4)C3)ccnc2c1-c1ccncc1 (stereo not shown) [Example 123] ? 0.5 to 5 µM

Would you mind telling me what Ki value was observed for Cc1nn2c(C3CCCN(Cc4ccc(Cl)cc4)C3)ccnc2c1CN1CCOCC1 (stereo not shown) [Example 165] ? > 5 µM

Would you mind telling me what Ki value was observed for c1ccc(CN2CCCC(c3ccnc4c(-c5cccnc5)cnn34)C2)cc1 (stereo not shown) [Example 37] ? 0.5 to 5 µM

* * *

target: Human σ1 receptor (Homo sapiens); construct: expressed in transfected cells; host or cells: HEK-293; test: Human σ1 receptor radioligand assay ([3H](+)-pentazocine binding, transfected HEK-293 membranes); conditions: binding to σ1 receptor expressed as Ki; + also covers inhibition between 1% and 50%; read-out: σ-1 binding
Sequence (Q99720 whole entry): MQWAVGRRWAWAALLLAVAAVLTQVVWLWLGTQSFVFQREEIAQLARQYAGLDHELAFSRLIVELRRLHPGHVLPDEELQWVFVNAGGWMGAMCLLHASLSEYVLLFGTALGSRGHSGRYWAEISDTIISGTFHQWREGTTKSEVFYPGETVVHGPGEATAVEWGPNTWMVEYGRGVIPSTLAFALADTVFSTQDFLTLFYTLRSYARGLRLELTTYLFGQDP
Measured Ki, listed per entry for reference.

Use the examples below as a reference point.
Compound: Cc1cc(-c2c(C)nn3c(C4CCCN(Cc5ccccc5)C4)ccnc23)ccn1 (centres unmarked)
Ki: 0.5 to 1 µM
--
Compound: CNCCNc1cc2nccc(C3CCCN(Cc4ccccc4)C3)n2n1 (centres unmarked)
Ki: > 1 µM
--
Compound: Cc1nn2c(C3CCCN(CC(C)C)C3)ccnc2c1-c1ccncc1 (centres unmarked)
Ki: > 1 µM
--
Compound: Cc1nn2c(C3CCCN(Cc4ccc(Cl)cc4)C3)ccnc2c1CN1CCCCC1 (centres unmarked)
Ki: < 0.5 µM
--
Compound: Cc1nn2c(C3CCCN(Cc4ccccc4)C3)ccnc2c1COc1ccccc1 (centres unmarked)
Ki: > 1 µM

Would you mind telling me what Ki value was observed for CN(CCN)c1cc2nccc(C3CCCN(Cc4ccccc4)C3)n2n1 (centres unmarked) ? > 1 µM

Would you mind telling me what Ki value was observed for Cc1nn2c(C3CCCN(Cc4ccccc4)C3)ccnc2c1-c1ccccc1 (centres unmarked) ? > 1 µM
